Each recorded value in this set is attributed to ChEMBL document CHEMBL4376827.

Tested on: THP-1
Test: Cytotoxicity against human THP1 cells assessed as reduction in cell viability at 5 uM incubated for 18 hrs by MTT assay relative to control
Details: thp-1, 18 h
Mark 0 (no) for Activity values under 80%, and 1 (yes) for everything at or above.

>>> class("COc1cc(NS(=O)(=O)c2ccc(C#N)cc2)c(OC)cc1Cl")
"1 (yes)"
>>> class("CCOc1ccc(S(=O)(=O)Nc2cc(OC)c(N=[N+]=[N-])cc2OC)cc1")
"0 (no)"
>>> class("CCOc1ccc(S(=O)(=O)N(CC(C)C)c2cc(OC)c(Cl)cc2OC)cc1")
"0 (no)"
>>> class("CCCCCCCCCCCCN(c1cc(OC)c(Cl)cc1OC)S(=O)(=O)c1ccc(OCC)cc1")
"1 (yes)"

----------
Organism: Homo sapiens
Test: Activation of LPS-induced NF-kappaB activity in human THP1-Blue-NF-kappaB cells assessed as increase in SEAP reporter activity at 5 uM incubated for 20 hrs by quanti-blue SEAP assay relative to control
Items are presented alongside their recorded Activity.
Endpoint Name: Activity (%)

>>> readout_number("CCOc1ccc(S(=O)(=O)Nc2cc(OC)c(Cl)cc2OC)cc1")
200
>>> readout_number("CCOc1ccc(S(=O)(=O)N(CCCN)c2cc(OC)c(Cl)cc2OC)cc1.Cl")
189
>>> readout_number("CCOC(=O)CCCN(c1cc(OC)c(Cl)cc1OC)S(=O)(=O)c1ccc(OCC)cc1")
199
>>> readout_number("CCCCCN(c1cc(OC)c(Cl)cc1OC)S(=O)(=O)c1ccc(OCC)cc1")
135
>>> readout_number("C#CCN(c1cc(OC)c(Cl)cc1OC)S(=O)(=O)c1ccc(OCC)cc1")
232

----------
Species on record: Homo sapiens
Test: Activation of LPS-induced NF-kappaB activity in human THP1-Blue-NF-kappaB cells assessed as increase in SEAP reporter activity at 5 uM incubated for 20 hrs by quanti-blue SEAP assay relative to control
Items are presented alongside their recorded Activity.
Endpoint Name: Activity

>>> result("COc1cccc(S(=O)(=O)Nc2cc(OC)c(Cl)cc2OC)c1")
"116%"
>>> result("COc1cc(NS(=O)(=O)c2ccc(N)cc2)c(OC)cc1Cl")
"101%"
>>> result("COc1cc(NS(=O)(=O)c2ccc(Oc3ccccc3)cc2)c(OC)cc1Cl")
"98%"
>>> result("CCOc1ccc(S(=O)(=O)N(CCCN)c2cc(OC)c(N=[N+]=[N-])cc2OC)cc1.Cl")
"138%"
>>> result("C#CCOCCOCCOCCN(c1cc(OC)c(Cl)cc1OC)S(=O)(=O)c1ccc(OCC)cc1")
"107%"

----------
Items are presented alongside their recorded EC50.
Test: Activation of IFNalpha signalling in human ISRE-bla THP1 cells assessed as increase in type-1 IFN-alpha induced ISRE activity preincubated for 16 hrs followed by CCF4-AM substrate addition and measured after 3 hrs by FRET based assay
Format: cell-based
Settings: THP-1
Endpoint Name: EC50 (nM)

>>> readout_number("CCOc1ccc(S(=O)(=O)Nc2cc(OC)c(Cl)cc2OC)cc1")
660
>>> readout_number("CCOc1ccc(S(=O)(=O)N(CCCN)c2cc(OC)c(Cl)cc2OC)cc1.Cl")
3040
>>> readout_number("COc1ccc(S(=O)(=O)Nc2cc(OC)c(Cl)cc2OC)cc1")
1400
>>> readout_number("CCOc1ccc(S(=O)(=O)N(C)c2cc(OC)c(Cl)cc2OC)cc1")
840

----------
Species: Homo sapiens
Experiment: Activation of LPS-induced NF-kappaB activity in human THP1-Blue-NF-kappaB cells assessed as increase in SEAP reporter activity at 5 uM incubated for 20 hrs by quanti-blue SEAP assay relative to control
Items are presented alongside their recorded Activity.
Endpoint Name: Activity (%)

>>> readout_number("COc1cc(NS(=O)(=O)c2ccc(CNC(=O)OC(C)(C)C)cc2)c(OC)cc1Cl")
100
>>> readout_number("CCOc1ccc(S(=O)(=O)Nc2cc(OC)ccc2OC)cc1")
116
>>> readout_number("COc1cc(NS(=O)(=O)c2ccc(C(N)=O)cc2)c(OC)cc1Cl")
103
>>> readout_number("COc1ccc(S(=O)(=O)Nc2cc(OC)c(Cl)cc2OC)cc1")
226
>>> readout_number("CCOc1ccc(S(=O)(=O)Nc2ccc(Cl)c(OC)c2)cc1")
126
>>> readout_number("COc1cc(NS(=O)(=O)c2ccc(CN)cc2)c(OC)cc1Cl")
103
>>> readout_number("CCOc1ccc(S(=O)(=O)N(CCCNC(=O)OC(C)(C)C)c2cc(OC)c(Cl)cc2OC)cc1")
134
>>> readout_number("CCCCCCCCCCCCN(c1cc(OC)c(Cl)cc1OC)S(=O)(=O)c1ccc(OCC)cc1")
97
>>> readout_number("CCOC(=O)CN(c1cc(OC)c(Cl)cc1OC)S(=O)(=O)c1ccc(OCC)cc1")
202
>>> readout_number("CCOc1ccc(S(=O)(=O)Nc2ccc(Cl)cc2OC)cc1")
141

----------
Species on record: Homo sapiens
Experiment: Activation of LPS-induced NF-kappaB activity in human THP1-Blue-NF-kappaB cells assessed as increase in SEAP reporter activity at 5 uM incubated for 20 hrs by quanti-blue SEAP assay relative to control
Endpoint Name: Activity (%)

>>> readout_number("C#CCCCN(c1cc(OC)c(Cl)cc1OC)S(=O)(=O)c1ccc(OCC)cc1")
182
>>> readout_number("CCOc1ccc(S(=O)(=O)N(C)c2cc(OC)c(Cl)cc2OC)cc1")
235
>>> readout_number("CCOc1ccc(S(=O)(=O)N(CCCNC(=O)CCCC[C@H]2SC[C@H]3NC(=O)N[C@H]32)c2cc(OC)c(N=[N+]=[N-])cc2OC)cc1")
162
>>> readout_number("CCCCOc1ccc(S(=O)(=O)Nc2cc(OC)c(Cl)cc2OC)cc1")
101
>>> readout_number("CCCN(c1cc(OC)c(Cl)cc1OC)S(=O)(=O)c1ccc(OCC)cc1")
227
>>> readout_number("COc1cc(NS(=O)(=O)c2ccc(C(=O)O)cc2)c(OC)cc1Cl")
89
>>> readout_number("CCCCN(c1cc(OC)c(Cl)cc1OC)S(=O)(=O)c1ccc(OCC)cc1")
192
>>> readout_number("CNC(=O)c1ccc(S(=O)(=O)Nc2cc(OC)c(Cl)cc2OC)cc1")
103
>>> readout_number("CCCc1ccc(S(=O)(=O)Nc2cc(OC)c(Cl)cc2OC)cc1")
102
>>> readout_number("C#CCCN(c1cc(OC)c(Cl)cc1OC)S(=O)(=O)c1ccc(OCC)cc1")
206
>>> readout_number("CCCCCCN(c1cc(OC)c(Cl)cc1OC)S(=O)(=O)c1ccc(OCC)cc1")
81
>>> readout_number("COc1cc(NS(=O)(=O)c2ccc(OC)c(Br)c2)c(OC)cc1Cl")
87
>>> readout_number("CCOc1ccc(S(=O)(=O)N(Cc2ccccc2)c2cc(OC)c(Cl)cc2OC)cc1")
181

----------
Items are presented alongside their recorded Activity.
Test system: THP-1
Test: Cytotoxicity against human THP1 cells assessed as reduction in cell viability at 5 uM incubated for 18 hrs by MTT assay relative to control
Conditions: thp-1, 18 h
Endpoint Name: Activity (%)

>>> readout_number("COc1cc(NS(=O)(=O)c2ccc(Oc3ccccc3)cc2)c(OC)cc1Cl")
91.3
>>> readout_number("CCOc1ccc(S(=O)(=O)N(CCCN)c2cc(OC)c(Cl)cc2OC)cc1.Cl")
71
>>> readout_number("COc1cc(NS(=O)(=O)c2ccc(N)cc2)c(OC)cc1Cl")
96
>>> readout_number("CCOc1ccc(S(=O)(=O)Nc2cc(OC)c([N+](=O)[O-])cc2OC)cc1")
79.2
>>> readout_number("COc1ccc(S(=O)(=O)Nc2cc(OC)c(Cl)cc2OC)cc1")
69.6
>>> readout_number("CCOc1ccc(S(=O)(=O)N(CCCC(=O)O)c2cc(OC)c(Cl)cc2OC)cc1")
73.4

----------
Species on record: Homo sapiens
Assay: Activation of LPS-induced NF-kappaB activity in human THP1-Blue-NF-kappaB cells assessed as increase in SEAP reporter activity at 5 uM incubated for 20 hrs by quanti-blue SEAP assay relative to control
hey, just use TRUE if measured Activity is less than 200%, otherwise FALSE

>>> class("CCOc1ccc(S(=O)(=O)Nc2cc(OC)c([N+](=O)[O-])cc2OC)cc1")
"TRUE"
>>> class("C#CCN(c1cc(OC)c(N=[N+]=[N-])cc1OC)S(=O)(=O)c1ccc(OCC)cc1")
"FALSE"
>>> class("CCCOc1ccc(S(=O)(=O)Nc2cc(OC)c(Cl)cc2OC)cc1")
"TRUE"
>>> class("COC(=O)c1ccc(S(=O)(=O)Nc2cc(OC)c(Cl)cc2OC)cc1")
"TRUE"
>>> class("CCOc1ccc(S(=O)(=O)N(CC(C)C)c2cc(OC)c(Cl)cc2OC)cc1")
"TRUE"
>>> class("CCOc1ccc(S(=O)(=O)N(CCCC(=O)O)c2cc(OC)c(Cl)cc2OC)cc1")
"FALSE"
>>> class("COc1cc(NS(=O)(=O)c2ccc(OC)c(N=[N+]=[N-])c2)c(OC)cc1Cl")
"TRUE"
>>> class("CCOc1ccc(S(=O)(=O)Nc2cc(OC)c(N=[N+]=[N-])cc2OC)cc1")
"FALSE"
>>> class("COc1cc(NS(=O)(=O)c2ccccc2OC)c(OC)cc1Cl")
"TRUE"
>>> class("CCOc1ccc(S(=O)(=O)Nc2cc(OC)c(Br)cc2OC)cc1")
"TRUE"
>>> class("CCOc1ccc(S(=O)(=O)N(C(C)=O)c2cc(OC)c(Cl)cc2OC)cc1")
"TRUE"
>>> class("COc1cc(NS(=O)(=O)c2ccc([N+](=O)[O-])cc2)c(OC)cc1Cl")
"TRUE"
>>> class("CCOC(=O)c1ccc(S(=O)(=O)Nc2cc(OC)c(Cl)cc2OC)cc1")
"TRUE"
>>> class("CCCCCCCN(c1cc(OC)c(Cl)cc1OC)S(=O)(=O)c1ccc(OCC)cc1")
"TRUE"
>>> class("C#CCOc1ccc(S(=O)(=O)Nc2cc(OC)c(Cl)cc2OC)cc1")
"TRUE"
